ASSAY_PROTOCOL: ATG_AP_1_CIS: Attagene CIS-FACTORIAL HepG2 Assay for human Activator Protein 1 (AP-1) (AID 2282931)
RECORDED_CONDITIONS: HepG2 Attagene cis-factorial AP-1 reporter mRNA; actives raise or lower the signal
Activity calls are given as the source filed them. The calls were made as follows: active = hit-call score of the fitted dose curve at least 0.9, where 1 is the maximum; inactive = score below 0.9.
Possible outcomes: 1 (active), -1 (inactive)

COMPOUND: c1ccc(Nc2ccccc2)cc1
CLASS: -1
//
COMPOUND: C=CCOC(Cn1ccnc1)c1ccc(Cl)cc1Cl (configuration not stated)
CLASS: 1
//
COMPOUND: CCC(O)=C1C(=O)CC(C(=O)O)CC1=O (configuration not stated)
CLASS: -1
//
COMPOUND: CCCCCOC(=O)COc1cc(N2C(=O)C3=C(CCCC3)C2=O)c(F)cc1Cl
CLASS: -1
//
COMPOUND: COC(=O)c1ccccc1S(=O)(=O)NC(=O)Nc1nc(OC(F)F)cc(OC(F)F)n1
CLASS: -1
//
COMPOUND: CCSC(=O)N(CC(C)C)CC(C)C
CLASS: -1
//
COMPOUND: CCCOC(=O)NCCCN(C)C
CLASS: -1

* * *

Read-out: C-C motif chemokine 2 (Homo sapiens) (UniProt P13500)
ASSAY_PROTOCOL: BSK_KF3CT_MCP1: BioMAP Diversity Plus: KF3CT Assay for Monocyte Chemoattractant Protein 1 (MCP1/CCL2) Biomarker Activity (AID 2283073)
RECORDED_CONDITIONS: primary human keratinocytes with fibroblasts; actives raise or lower the signal
Calls of active or inactive are those of the source. Rule for the calls: active = hit-call score of the fitted dose curve at least 0.9, where 1 is the maximum; inactive = score below 0.9.
Possible outcomes: true (1) = active, false (0) = inactive

MOLECULE: O=C(O)c1ccccc1
CLASS: false (0)
--
MOLECULE: CCN(CC)C(=O)c1cccc(C)c1
CLASS: false (0)
--
MOLECULE: O=C(Nc1ccc([N+](=O)[O-])cc1Cl)c1cc(Cl)ccc1O
CLASS: true (1)
--
MOLECULE: COC(=O)c1ccc(I)cc1S(=O)(=O)NC(=O)Nc1nc(C)nc(OC)n1
CLASS: false (0)
--
MOLECULE: CCOC(=O)c1ccc(O)cc1
CLASS: false (0)
--
MOLECULE: COC(=O)CSc1cc(N=c2sc(=O)n3n2CCCC3)c(F)cc1Cl
CLASS: false (0)
--
MOLECULE: CCCCOC(=O)C(C)Oc1ccc(Oc2ccc(C(F)(F)F)cn2)cc1 (stereo not given)
CLASS: false (0)
--
MOLECULE: COc1nc(C)nc(NC(=O)NS(=O)(=O)c2ccccc2OCCCl)n1
CLASS: false (0)
--
MOLECULE: CC(C)CCCCCCc1ccc(O)cc1
CLASS: true (1)
--
MOLECULE: C#CCOC(=O)[C@@H](C)Oc1ccc(Oc2ncc(Cl)cc2F)cc1
CLASS: false (0)
--
MOLECULE: CCCN(CCC)C(=O)SCC
CLASS: false (0)
--
MOLECULE: O=C(c1ccccc1)C1CCCCC1
CLASS: false (0)
--
MOLECULE: C#C[C@]1(O)CC[C@H]2[C@@H]3CCC4=CC(=O)CC[C@@H]4[C@H]3CC[C@@]21CC
CLASS: false (0)
--
MOLECULE: COC(=O)c1ccc(CNS(C)(=O)=O)cc1S(=O)(=O)NC(=O)Nc1nc(OC)cc(OC)n1
CLASS: false (0)
--
MOLECULE: CCOC(=O)NCCOc1ccc(Oc2ccccc2)cc1
CLASS: true (1)

* * *

Read-out: Cytochrome P450 3A4 (Homo sapiens)
ASSAY_PROTOCOL: LTEA_HepaRG_CYP3A4: Life Technologies and Expression Analysis (LTEA) Assay for CYP3A4 using HepaRG (AID 2283487)
RECORDED_CONDITIONS: mRNA level, 48 h; actives raise or lower the signal
Calls of active or inactive are those of the source. Rule for the calls: active = hit-call score of the fitted dose curve at least 0.9, where 1 is the maximum; inactive = score below 0.9.
Possible outcomes: 1 (yes) for active, 0 (no) for inactive

COMPOUND: COC(=O)c1ccc(I)cc1S(=O)(=O)NC(=O)Nc1nc(C)nc(OC)n1
CLASS: 1 (yes)
//
COMPOUND: O=C(O)C1(C(=O)Nc2ccc(Cl)cc2Cl)CC1
CLASS: 1 (yes)
//
COMPOUND: CCOC(=O)C(C)Oc1ccc(Oc2nc3ccc(Cl)cc3o2)cc1 (centres undefined)
CLASS: 0 (no)
//
COMPOUND: CCC(C)OC(=O)N1CCCCC1CCO (centres undefined)
CLASS: 1 (yes)
//
COMPOUND: CC(C)CCCCCCc1ccc(O)cc1
CLASS: 1 (yes)
//
COMPOUND: Cc1nn(C)c(Oc2ccccc2)c1C=NOCc1ccc(C(=O)OC(C)(C)C)cc1
CLASS: 1 (yes)
//
COMPOUND: N#CSCSc1nc2ccccc2s1
CLASS: 0 (no)
//
COMPOUND: COC(=O)CSc1cc(N=c2sc(=O)n3n2CCCC3)c(F)cc1Cl
CLASS: 1 (yes)
//
COMPOUND: COC(=O)c1ccccc1C(=O)O
CLASS: 0 (no)

* * *

Read-out: Interferon-gamma inducible Protein 10 (IP10), CXCL10 (gene 3627)
ASSAY_PROTOCOL: BSK_hDFCGF_IP10: BioMAP Diversity Plus: hDFCGF Assay for Interferon-gamma inducible Protein 10 (IP10) Biomarker Activity (AID 2283053)
RECORDED_CONDITIONS: primary human foreskin fibroblasts; actives raise or lower the signal
Calls of active or inactive are those of the source. Rule for the calls: active = hit-call score of the fitted dose curve at least 0.9, where 1 is the maximum; inactive = score below 0.9.
Possible outcomes: active, inactive

MOLECULE: CCCCC(CC)COC(=O)c1ccccc1C(=O)O (stereo not drawn)
CLASS: active
--
MOLECULE: C#CCOC(=O)[C@@H](C)Oc1ccc(Oc2ncc(Cl)cc2F)cc1
CLASS: inactive
--
MOLECULE: COCCO
CLASS: inactive
--
MOLECULE: CSC(=O)c1cccc2nnsc12
CLASS: inactive
--
MOLECULE: COC(=O)c1ccccc1C(=O)O
CLASS: active
--
MOLECULE: O=C(O)C1(C(=O)Nc2ccc(Cl)cc2Cl)CC1
CLASS: inactive
--
MOLECULE: CCNc1nc(N)nc(Cl)n1
CLASS: inactive
--
MOLECULE: CCC(C)OC(=O)N1CCCCC1CCO (stereo not drawn)
CLASS: inactive
--
MOLECULE: COC(=O)c1ccc(I)cc1S(=O)(=O)NC(=O)Nc1nc(C)nc(OC)n1
CLASS: inactive
--
MOLECULE: COc1nc(C)nc(NC(=O)NS(=O)(=O)c2ccccc2OCCCl)n1
CLASS: inactive
--
MOLECULE: CCOC(=O)NCCOc1ccc(Oc2ccccc2)cc1
CLASS: inactive
--
MOLECULE: COC(=O)c1ccccc1S(=O)(=O)NC(=O)Nc1nc(OC(F)F)cc(OC(F)F)n1
CLASS: inactive
--
MOLECULE: Oc1ccc(C(c2ccc(O)cc2)C(Cl)(Cl)Cl)cc1
CLASS: active
--
MOLECULE: COC(=O)CSc1cc(N=c2sc(=O)n3n2CCCC3)c(F)cc1Cl
CLASS: inactive
--
MOLECULE: O=C(c1ccc(O)cc1O)c1ccc(O)cc1O
CLASS: inactive
--
MOLECULE: c1ccc(Nc2ccccc2)cc1
CLASS: inactive
--
MOLECULE: CCCCCCC(C)OC(=O)COc1nc(F)c(Cl)c(N)c1Cl (stereo not drawn)
CLASS: active
--
MOLECULE: CCCN(CCC)c1c([N+](=O)[O-])cc(C(F)(F)F)c(N)c1[N+](=O)[O-]
CLASS: active
--
MOLECULE: CC(=O)S[C@@H]1CC2=CC(=O)CC[C@]2(C)[C@H]2CC[C@@]3(C)[C@@H](CC[C@@]34CCC(=O)O4)[C@H]12
CLASS: active
--
MOLECULE: CCN(Cc1c(F)cccc1Cl)c1c([N+](=O)[O-])cc(C(F)(F)F)cc1[N+](=O)[O-]
CLASS: active
--
MOLECULE: CC(C)CCCCCCc1ccc(O)cc1
CLASS: active
--
MOLECULE: CCCN(CCC)C(=O)SCC
CLASS: inactive
--
MOLECULE: CC(C)(C)[C@@H](O)[C@@H](Cc1ccc(Cl)cc1)n1cncn1
CLASS: inactive
--
MOLECULE: C=CCOC(Cn1ccnc1)c1ccc(Cl)cc1Cl (stereo not drawn)
CLASS: active
--
MOLECULE: CC1(C)C(C=C(Cl)Cl)C1C(=O)OCc1cccc(Oc2ccccc2)c1 (stereo not drawn)
CLASS: inactive
--
MOLECULE: CCCOC(=O)NCCCN(C)C
CLASS: inactive
--
MOLECULE: OB(O)O
CLASS: inactive
--
MOLECULE: CCOC(=O)C(C)Oc1ccc(Oc2nc3ccc(Cl)cc3o2)cc1 (stereo not drawn)
CLASS: inactive

* * *

Read-out: E-selectin (Homo sapiens)
ASSAY_PROTOCOL: BSK_3C_Eselectin: BioMAP Diversity Plus: 3C Assay for Eselectin Biomarker Activity (AID 2283015)
RECORDED_CONDITIONS: primary human endothelial cells (HUVEC); actives raise or lower the signal
Procedure: BSK_3C is a cell-based, multiplexed-readout assay that uses umbilical vein endothelium, a human vascular primary cell, with measurements taken at 24 hours after chemical dosing in a 96-well plate.BSK_3C_Eselectin is an assay component measured in the BSK_3C assay. It measures E-selectin antibody related to regulation of gene expression using ELISA technology.Data from the assay component BSK_3C_Eselectin was analyzed into 1 assay endpoint. […]
Activity calls are given as the source filed them. How the source made its calls: active means hit-call score of the fitted dose curve at least 0.9, where 1 is the maximum; inactive means score below 0.9.
Possible outcomes: y for active, n for inactive

COMPOUND: O=C(O)c1ccccc1
CLASS: n
--
COMPOUND: S=C([S-])NCCNC(=S)[S-].[Mn+2]
CLASS: n
--
COMPOUND: C#C[C@]1(O)CC[C@H]2[C@@H]3CCC4=CC(=O)CC[C@@H]4[C@H]3CC[C@@]21CC
CLASS: n
--
COMPOUND: CCNc1nc(N)nc(Cl)n1
CLASS: n
--
COMPOUND: CCOC(=O)c1ccc(O)cc1
CLASS: n
--
COMPOUND: C[C@]12C[C@H](O)[C@H]3[C@@H](CCC4=CC(=O)CC[C@@]43C)[C@@H]1CC[C@@H]2C(=O)CO
CLASS: n
--
COMPOUND: CCOC(=O)COc1cc(-n2ncc(C(F)(F)F)c(C)c2=O)c(F)cc1Cl
CLASS: n
--
COMPOUND: COCCO
CLASS: n
--
COMPOUND: CCCCCOC(=O)COc1cc(N2C(=O)C3=C(CCCC3)C2=O)c(F)cc1Cl
CLASS: n
--
COMPOUND: CCC(O)=C1C(=O)CC(C(=O)O)CC1=O (stereo unspecified)
CLASS: n
--
COMPOUND: C[C@]12CC[C@@H]3c4ccc(O)cc4C[C@@H](CCCCCCCCCS(=O)CCCC(F)(F)C(F)(F)F)[C@H]3[C@@H]1CC[C@@H]2O (stereo partly specified)
CLASS: n
--
COMPOUND: CC(C)(C)[C@@H](O)[C@@H](Cc1ccc(Cl)cc1)n1cncn1
CLASS: n
--
COMPOUND: COC(=O)c1c(Cl)nn(C)c1S(=O)(=O)NC(=O)Nc1nc(OC)cc(OC)n1
CLASS: n
--
COMPOUND: OB(O)O
CLASS: n
--
COMPOUND: COc1nc(C)nc(NC(=O)NS(=O)(=O)c2ccccc2OCCCl)n1
CLASS: n
--
COMPOUND: C=CCOC(Cn1ccnc1)c1ccc(Cl)cc1Cl (stereo unspecified)
CLASS: n
--
COMPOUND: CCC(C)OC(=O)N1CCCCC1CCO (stereo unspecified)
CLASS: n
--
COMPOUND: N[C@@H](Cc1cc(I)c(Oc2ccc(O)c(I)c2)c(I)c1)C(=O)O
CLASS: n
--
COMPOUND: COC(=O)CSc1cc(N=c2sc(=O)n3n2CCCC3)c(F)cc1Cl
CLASS: n
--
COMPOUND: CCCCOC(=O)C(C)Oc1ccc(Oc2ccc(C(F)(F)F)cn2)cc1 (stereo unspecified)
CLASS: n
--
COMPOUND: COC(=O)c1ccc(CNS(C)(=O)=O)cc1S(=O)(=O)NC(=O)Nc1nc(OC)cc(OC)n1
CLASS: n
--
COMPOUND: CCN(CC)C(=O)c1cccc(C)c1
CLASS: n
--
COMPOUND: Oc1ccc(C(c2ccc(O)cc2)C(Cl)(Cl)Cl)cc1
CLASS: y
--
COMPOUND: CCCCOCCOCCOCc1cc2c(cc1CCC)OCO2
CLASS: n
--
COMPOUND: COC(=O)c1ccc(I)cc1S(=O)(=O)NC(=O)Nc1nc(C)nc(OC)n1
CLASS: n
--
COMPOUND: CC(C)(c1ccc(O)cc1)c1ccc(O)cc1
CLASS: n
